The reported numbers originate from patent US20220298254A1.

Target: T1, human CD47 (recombinant protein, construct not stated) (human, UniProt Q08722 19-141)
T1 construct: also called hCD47; human CD47 protein
Test: ELISA on coated human CD47
Recorded Fold increase in EC50 relative to 1-1-A1_BM, one value per entry.
Your answer should be a plain number; it is taken to be in fold.

Guide cases for Fold increase in EC50 relative to 1-1-A1_BM, answers given:
[[record]]
binder = "11A1H7-IgG1 (antibody, V domains shown, Humanised version of clone 1-1-A1, IgG1/kappa; also called 1A11H7) VH: QVQLVQSGAEVKKPGASVKVSCKASGYTFTGYVIHWVRQAPGQGLEWMGYINPYNGGTNYAQKFKGRVTLTSDTSTTTAYMELSRLRSEDTAVYYCASGGYYTMDYWGQGTLVTVSS VL: DVVMTQSPLSLPVTLGQPASISCRSSQHLEYSQGYSYLHWYQQRPGQSPRLLIYKVSNRDSGVPDRFSGSGSGTDFTLKISRVEAEDVGVYYCSQSTHVPYTFGGGTKVEIKR"
measurement_unit = "fold"
recorded_number = 20400

[[record]]
binder = "11A1H4-IgG1 (antibody, V domains shown, Humanised version of clone 1-1-A1, IgG1/kappa; also called 1A11H4) VH: QVQLVQSGAEVKKPGASVKVSCKASGYTFTNYVIHWVRQAPGQGLEWMGYINPYNDGTKYNQKFKGRVTLTSDTSTTTAYMELSRLRSDDTAVYYCASGGYYTMDYWGQGTLVASTK VL: DVVMTQSPLSLPVTLGQPASISCRSSQHLEYSNGYSYLHWYQQRPGQSPRLLIYKISNRFSGVPDRFSGSGSGTDFTLKISRVEAEDVGVYYCSQSTHVPYTFGGGTKVEIKR"
measurement_unit = "fold"
recorded_number = 0.1


# ---- query binder ----
Quick note, Fold increase in EC50 relative to 1-1-A1_BM for 11A1H5-IgG1 (antibody, V domains shown, Humanised version of clone 1-1-A1, IgG1/kappa; also called 1A11H5) VH: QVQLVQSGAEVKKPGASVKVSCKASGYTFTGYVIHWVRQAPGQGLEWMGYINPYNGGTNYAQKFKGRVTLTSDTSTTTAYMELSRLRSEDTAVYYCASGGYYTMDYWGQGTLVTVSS VL: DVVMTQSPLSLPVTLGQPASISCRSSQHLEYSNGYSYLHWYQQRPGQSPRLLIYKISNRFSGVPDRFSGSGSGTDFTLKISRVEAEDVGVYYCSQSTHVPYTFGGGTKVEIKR landed at 0.08
